Source of measurements: patent US10611759B2

target: Glutaminase(Brain) (Mus musculus); test: Glutaminase enzyme activity using glutaminase enzyme from mice brain/kidney homogenate (Nessler's reagent, ammonia); assay type: biochemical; conditions: 1 μM; mice brain homogenate; read-out: Glutaminase(Brain) activity % inhibition @1 μM
Sequence (D3Z7P3 55-674): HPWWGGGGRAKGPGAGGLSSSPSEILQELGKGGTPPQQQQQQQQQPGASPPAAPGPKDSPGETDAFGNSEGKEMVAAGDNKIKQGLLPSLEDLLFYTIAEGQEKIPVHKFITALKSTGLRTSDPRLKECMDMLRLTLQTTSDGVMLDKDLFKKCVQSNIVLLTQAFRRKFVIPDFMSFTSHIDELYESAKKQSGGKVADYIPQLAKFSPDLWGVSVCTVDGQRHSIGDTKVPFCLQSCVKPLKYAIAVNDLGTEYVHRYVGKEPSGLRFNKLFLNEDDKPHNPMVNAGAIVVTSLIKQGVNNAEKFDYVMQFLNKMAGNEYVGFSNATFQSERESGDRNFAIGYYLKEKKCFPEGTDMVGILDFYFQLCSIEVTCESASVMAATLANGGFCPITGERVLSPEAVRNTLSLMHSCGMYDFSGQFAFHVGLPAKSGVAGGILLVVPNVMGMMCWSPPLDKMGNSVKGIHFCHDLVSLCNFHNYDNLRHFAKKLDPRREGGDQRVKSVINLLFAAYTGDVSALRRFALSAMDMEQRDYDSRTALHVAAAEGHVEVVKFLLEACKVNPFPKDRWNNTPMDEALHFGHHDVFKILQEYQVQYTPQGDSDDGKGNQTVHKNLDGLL
propertyName: inhibition at 1 µM

Illustrative cases are given below, each with its answer.
# molecule, inhibition at 1 µM
measured = [
    ("O=C(Cc1cccc(OC(F)(F)F)c1)Nc1ccc(N2CCC(c3nnc(NC(=O)Cc4cccnc4)s3)CC2)cn1", "50 to 75%"),
    ("Cc1ccccc1CC(=O)Nc1nnc(C2CCN(c3ccc(NC(=O)Cc4cccc(OC(F)(F)F)c4)nn3)CC2)s1", "50 to 75%"),
    ("O=C(Cc1ccccn1)Nc1ccc(N2CCC(c3nnc(NC(=O)Cc4ccccc4F)s3)CC2)nn1", "75 to 100%"),
]

Now for another entry.
Prompt: Please report the recorded inhibition at 1 µM for O=C(Cc1cccc(OC(F)(F)F)c1)Nc1ccc(N2CCCC(c3nnc(NC(=O)Cc4ccccn4)s3)C2)cn1 (single isomer, unassigned) [Example 2A] .
Response: < 25%

----------
target: UniProt D3Z7P3; assay: Glutaminase enzyme activity using glutaminase enzyme from mice brain/kidney homogenate (Nessler's reagent, ammonia); assay type: biochemical; details: 0.1 μM; mice brain homogenate; read-out: Glutaminase(Brain) activity % inhibition 0.1 μM
propertyName: inhibition at 0.1 µM

# compound, testedSystem, inhibition at 0.1 µM
measured = [
    ("O=C(Cc1ccccn1)Nc1ccc(N2CCC(c3nnc(NC(=O)Cc4ccc(F)c(F)c4)s3)CC2)nn1", "UniProt D3Z7P3", "50 to 75%"),
    ("O=C(Cc1ccccn1)Nc1ccc(N2CCC(c3nnc(NC(=O)Cc4c(F)ccc(F)c4F)s3)CC2)nn1", "UniProt D3Z7P3", "25 to 50%"),
    ("O=C(Cc1cccc(OC(F)(F)F)c1)Nc1ccc(N2CCCC(c3nnc(NC(=O)Cc4cccnc4)s3)C2)cn1 (racemic) [Example 3]", "UniProt D3Z7P3", "25 to 50%"),
    ("O=C(Cc1cccc(OC(F)(F)F)c1)Nc1ccc(N2CCC(c3nnc(NC(=O)C(CO)c4ccccc4)s3)CC2)nn1 (stereo not drawn)", "UniProt D3Z7P3", "25 to 50%"),
    ("O=C(Cc1ccccn1)Nc1ccc(N2CCCC(c3nnc(NC(=O)Cc4cccc(OC(F)(F)F)c4)s3)C2)cn1 (stereo not drawn)", "UniProt D3Z7P3", "< 25%"),
    ("O=C(Cc1ccccn1)Nc1ccc(N2CCC(c3nnc(NC(=O)Cc4cccc(OC(F)(F)F)c4)s3)CC2)cn1", "UniProt D3Z7P3", "< 25%"),
    ("O=C(Cc1cccc(OC(F)(F)F)c1)Nc1ccc(N2CCCC(c3nnc(NC(=O)Cc4cccnc4)s3)C2)cn1 (single isomer, unassigned) [Example 3B]", "UniProt D3Z7P3", "< 25%"),
    ("O=C(Cc1ccccn1)Nc1ccc(N2CCC(c3nnc(NC(=O)Cc4cccc(Cl)c4)s3)CC2)nn1", "UniProt D3Z7P3", "50 to 75%"),
    ("O=C(Cc1ccccn1)Nc1ccc(N2CCC(c3nnc(NC(=O)Cc4cccc(F)c4)s3)CC2)nn1", "UniProt D3Z7P3", "50 to 75%"),
    ("CS(=O)(=O)Nc1cccc(CC(=O)Nc2nnc(C3CCN(c4ccc(NC(=O)Cc5cccc(OC(F)(F)F)c5)nn4)CC3)s2)c1", "UniProt D3Z7P3", "< 25%"),
]

Prompt: Would you mind telling me what inhibition at 0.1 µM value was observed for Cc1ccccc1CC(=O)Nc1nnc(C2CCN(c3ccc(NC(=O)Cc4cccc(OC(F)(F)F)c4)nn3)CC2)s1 ?
Response: 25 to 50%

Prompt: Which inhibition at 0.1 µM value belongs to N#Cc1cccc(CC(=O)Nc2nnc(C3CCN(c4ccc(NC(=O)Cc5cccc(OC(F)(F)F)c5)nc4)CC3)s2)c1 ?
Response: < 25%
